Origin of the recorded values: patent US10912780B2

method description: In vivo pharmacokinetic studies in rats, 1 hr intravenous infusion
condition context: male, Sprague-Dawley, rat, in vivo, iv, 150 mg/kg, Vss, male SD rats, 150 mg/kg, 1 h IV infusion
parameter measured: Vd (L/kg)
Form entry: value (L/kg) — number only.

stdin: Consider the compound `Cn1c(=O)ccc2ccc(F)c(CCNC[C@H]3CN(c4cnc5c(n4)NC(=O)CO5)C(=O)O3)c21` . State its measured Vd.
stdout: 0.86

====

method description: In vivo pharmacokinetic studies in rats, 1 hr intravenous infusion
condition context: male, Sprague-Dawley, rat, in vivo, iv, 30 mg/kg
parameter measured: Cmax (ng/mL)
Form entry: value (ng/mL) — number only.

stdin: Consider the molecule `Cn1c(=O)ccc2ccc(F)c(CCNC[C@H]3CN(c4cnc5c(n4)NC(=O)CO5)C(=O)O3)c21` . State its measured Cmax.
stdout: 15200

====

System: Enterococcus faecalis ATCC 29212
method description: Minimum Inhibitory Concentration (MIC) in LB media
Type: cell-based
condition context: Enterococcus faecalis, ATCC29212, read-out: Minimum Inhibitory Concentration E. faecalis ATCC 29212
parameter measured: MIC (µg/mL)
Form entry: value (µg/mL) — number only.

stdin: Provide MIC, tested on Enterococcus faecalis ATCC 29212, for CN1C(=O)CCc2ccc(F)c(CCNC[C@@H]3CN(c4ccc5c(n4)NC(=O)CO5)C(=O)O3)c21 [Example 3] .
stdout: 0.25

stdin: Provide MIC, tested on Enterococcus faecalis ATCC 29212, for Cn1c(=O)cc(CN)c2ccc(F)c(CCNC[C@H]3CN(c4ccc5c(n4)NC(=O)CO5)C(=O)O3)c21 [Example 13] .
stdout: 0.5

stdin: Provide MIC, tested on Enterococcus faecalis ATCC 29212, for O=C1COc2ccc(N3C[C@H](CNCCc4c(F)ccc5ccc(=O)n(CCO)c45)OC3=O)nc2N1 [Example 10] .
stdout: 0.06

stdin: Provide MIC, tested on Enterococcus faecalis ATCC 29212, for Cn1c(=O)cc(CO)c2ccc(F)c(CCNC[C@H]3CN(c4ccc5c(n4)NC(=O)CO5)C(=O)O3)c21 [Example 12] .
stdout: 0.5

stdin: Provide MIC, tested on Enterococcus faecalis ATCC 29212, for O=C(O)c1cn(C2CC2)c2cc(N3CCNCC3)c(F)cc2c1=O [Ciprofloxacin, reference compound] .
stdout: 0.4

stdin: Provide MIC, tested on Enterococcus faecalis ATCC 29212, for Cc1nc2ccc(F)c(CCNC[C@@H]3CN(c4ccc5c(n4)NC(=O)CO5)C(=O)O3)c2n(C)c1=O [Example 7] .
stdout: 0.25

stdin: Provide MIC, tested on Enterococcus faecalis ATCC 29212, for CN1C(=O)CCc2ccc(F)c(CCNC[C@H]3CN(c4ccc5c(n4)NC(=O)CO5)C(=O)O3)c21 [Example 2] .
stdout: 1

====

method description: In vivo pharmacokinetic studies in rats, 1 hr intravenous infusion
condition context: male, Sprague-Dawley, rat, in vivo, iv, 100 mg/kg, Vd, male SD rats, 1 h IV infusion
parameter measured: Vd (L/kg)
Form entry: value (L/kg) — number only.

stdin: Consider the molecule Cn1c(=O)ccc2ccc(F)c(CCNC[C@H]3CN(c4cnc5c(n4)NC(=O)CO5)C(=O)O3)c21 [Example 15] . State its measured Vd.
stdout: 9.86

====

method description: IV formulation solubility
Type: physicochemical
condition context: 10% L-ascorbic acid in MilliQ water (IV formulation), aqueous with cosolvent or surfactant or cyclodextrin, IV formulation: 10% L-Ascorbic acid, 1N NaOH for pH adjustment, read-out: Solubility in 10% L-ascorbic acid in fresh MilliQ water(v/v), Final
Description: Procedure: Weighed appropriate amount of the Example 15 to be tested and dissolved in 1 ml of the 10% ascorbic acid solution. (Vortex for a few seconds if the compound doesn't dissolve instantly). Sonicated the compound solution at room temperature for 5 minutes using a bath sonicator to obtain a visually clear solution. […]
parameter measured: solubility at 5 min (mg/mL)
Form entry: value (mg/mL) — number only.

stdin: Consider the compound Cn1c(=O)ccc2ccc(F)c(CCNC[C@H]3CN(c4cnc5c(n4)NC(=O)CO5)C(=O)O3)c21 [Example 15] . State its measured solubility at 5 min.
stdout: 25
